Tested on: MILI (PIWIL2) piRISC loaded with L1MC piRNA (26 nt);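 further: 1 nM active piRISC with 0.1 nM target library at 33 °C single turnover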
EXPERIMENTAL_DETAILS: pre-steady-state target cleavage rate (min^-1); guide: L1MC piRNA 5'p-UAACUAAAUACUAUGCAAGCUGUAGG; higher = faster piRNA-guided slicing of the target
EXPERIMENTAL_CONDITIONS: auxiliary factor: none (no GTSF1)
Just so you know, the groups by pre-steady-state target cleavage rate go like this: band A (below 0.005), band B (0.005 to below 0.008), band C (0.008 or more)

Known results for sequences:
[[record]]
record_sequence = "UCCUGCUACAGGAUGCAUAGUAUUUAGUUA"
category = "band C"

[[record]]
record_sequence = "UCCUGGAACAGGAUGCAUAGUAUUUAGUAA"
category = "band A"

[[record]]
record_sequence = "UCCUGGAACAGCUAGCAUAGUAUAUAGUUA"
category = "band B"

[[record]]
record_sequence = "UCCUGGUACAGCUUGCUUAGUUUUUAGUUA"
category = "band B"


Assign a category based on measured pre-steady-state target cleavage rate for "UCCUGGAUGUCCUUGCAUAGUAUUUAGUGA" and give only the class name.
band A

Assign a category based on measured pre-steady-state target cleavage rate for "UCCUGGUACAGCUAGCUUAGUAUUUAGUUA" and give only the class name.
band B

Assign a category based on measured pre-steady-state target cleavage rate for "UCCUGGUACAGGUUGCAUAGUAUUAAGUUA" and give only the class name.
band C

Assign a category based on measured pre-steady-state target cleavage rate for "UCCUGGAUCAGCUUGCAUAGUAUCUUAGUUA" and give only the class name.
band B

Assign a category based on measured pre-steady-state target cleavage rate for "UCCUGGAUGUCGAACGAUAGUAUUUAAGUUA" and give only the class name.
band A

Assign a category based on measured pre-steady-state target cleavage rate for "UCCUGGAUGUCGAACGUAUGUAUUUCGUUA" and give only the class name.
band A

Assign a category based on measured pre-steady-state target cleavage rate for "UCCUGGAUCAGCUACCAUAGUAUUUACAAA" and give only the class name.
band A

Assign a category based on measured pre-steady-state target cleavage rate for "UCCUGGAUGUCCUUGCAUAGUAAUUUAGUUA" and give only the class name.
band B

Assign a category based on measured pre-steady-state target cleavage rate for "UCCUGGUACUGCAUGCAUAGUAUUUAGUUA" and give only the class name.
band C

Assign a category based on measured pre-steady-state target cleavage rate for "UCCUGGUACAGGUUGCAUACUAUUUAGUUA" and give only the class name.
band B

----------
System: MILI (PIWIL2) piRISC loaded with L1MC piRNA (26 nt);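 further: 1 nM active piRISC with 0.1 nM target library at 33 °C single turnover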
EXPERIMENTAL_DETAILS: pre-steady-state target cleavage rate (min^-1); guide: L1MC piRNA 5'p-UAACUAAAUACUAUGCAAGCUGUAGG; higher = faster piRNA-guided slicing of the target
EXPERIMENTAL_CONDITIONS: auxiliary factor: 500 nM mouse GTSF1
MEASURE: pre-steady-state target cleavage rate
# respond with the number and nothing more

Example entries begin here.
[[record]]
record_sequence = "UCCUGGUACAGCUUGCAAAGUAAUUAGUUA"
assay_target = "MILI (PIWIL2) piRISC loaded with L1MC piRNA (26 nt)"
measure = "pre-steady-state target cleavage rate"
test_result = 0.207

[[record]]
record_sequence = "UCCUGGAACAGCUUGCAUUGUAUUUAGUAA"
assay_target = "MILI (PIWIL2) piRISC loaded with L1MC piRNA (26 nt)"
measure = "pre-steady-state target cleavage rate"
test_result = 0.17

[[record]]
record_sequence = "UCCUCCUUCAGCUUGCAAAGUAUUUAGUUA"
assay_target = "MILI (PIWIL2) piRISC loaded with L1MC piRNA (26 nt)"
measure = "pre-steady-state target cleavage rate"
test_result = 0.162

[[record]]
record_sequence = "UCCUCCUACAGCUUGCAUUGUAUUUACUUA"
assay_target = "MILI (PIWIL2) piRISC loaded with L1MC piRNA (26 nt)"
measure = "pre-steady-state target cleavage rate"
test_result = 0.145

[[record]]
record_sequence = "UCCUGGAUGUCCUUGCAUAGUUAUUUAGUUA"
assay_target = "MILI (PIWIL2) piRISC loaded with L1MC piRNA (26 nt)"
measure = "pre-steady-state target cleavage rate"
test_result = 0.0103

[[record]]
record_sequence = "UCCUGGUUCAGGUUGCAUAGUAUUUAGUUA"
assay_target = "MILI (PIWIL2) piRISC loaded with L1MC piRNA (26 nt)"
measure = "pre-steady-state target cleavage rate"
test_result = 0.21


Return reported pre-steady-state target cleavage rate; argument: "UCCUGGUACAGCUUGCAUAGUAUAUAGAUA"
0.014

Return reported pre-steady-state target cleavage rate; argument: "UCCUGCUACAGGAAGCAUAGUAUUUACAAA"
0.0258

Return reported pre-steady-state target cleavage rate; argument: "UCCUCCUACAGCUUGCUUAGUAAUUAGUUA"
0.24

Return reported pre-steady-state target cleavage rate; argument: "UCCUGCUACUCCUUGCAUAGUAUUUUCAAA"
0.0369

----------
Test system: EfPiwi piRISC loaded with L1MC piRNA (26 nt)
EXPERIMENTAL_DETAILS: pre-steady-state target cleavage rate (min^-1); auxiliary factor: 500 nM Ephydatia muelleri Gtsf1; guide: L1MC piRNA 5'p-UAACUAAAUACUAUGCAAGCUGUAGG; higher = faster piRNA-guided slicing of the target
MEASURE: pre-steady-state target cleavage rate
# respond with the number and nothing more

[[record]]
record_sequence = "UCCUCCAACAGCUUGGAUAGUAUUUAGUUA"
test_result = 0.0467

[[record]]
record_sequence = "UCCUGGAUAAGCUUGCAUAGUAUUUAGUUA"
test_result = 0.0102

[[record]]
record_sequence = "UCCUCCUACAGGUUGCAUAGUAUUUUGUUA"
test_result = 0.00418

[[record]]
record_sequence = "UCCUGCUACUGCUUGCAUAGUAUUUAGAUA"
test_result = 0.00383

[[record]]
record_sequence = "UCCUGGAACAGCUUGCAUAGUAUAAAGAAA"
test_result = 0.00217

[[record]]
record_sequence = "UCCUCCUACAGGUAGCAUAGUAUUUAGUUA"
test_result = 0.0265

[[record]]
record_sequence = "UCCUGGAACAGCUUGCAUAGUAUCUUAGUUA"
test_result = 0.0187

[[record]]
record_sequence = "UCCUGCUACAGCUUGAAUAGUAUUUAGUUA"
test_result = 0.0179

[[record]]
record_sequence = "UCCUGGAUGAGCUUGCAUAGUAUUUAGGUUA"
test_result = 0.0031

[[record]]
record_sequence = "UCCUGGAUGAGCUUGCAUAGUAUGUAGUUA"
test_result = 0.0135


Return reported pre-steady-state target cleavage rate; argument: "UCCUGGAUGUCCUUGCAUAGUAUUUAGUAUA"
0.00442

Return reported pre-steady-state target cleavage rate; argument: "UCCUGGUACAGCUUGCAUAGUAUUCAGUUA"
0.00472

----------
System: MILI (PIWIL2) piRISC loaded with L1MC piRNA (26 nt);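 further: 1 nM active piRISC with 0.1 nM target library at 33 °C single turnover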
EXPERIMENTAL_DETAILS: pre-steady-state target cleavage rate (min^-1); guide: L1MC piRNA 5'p-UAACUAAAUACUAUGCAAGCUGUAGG; higher = faster piRNA-guided slicing of the target
EXPERIMENTAL_CONDITIONS: auxiliary factor: 500 nM mouse GTSF1
MEASURE: pre-steady-state target cleavage rate
# respond with the number and nothing more

Example entries begin here.
[[record]]
record_sequence = "UCCUGCUACAGCUACCAUAGUAUUUAGAAA"
test_result = 0.0677

[[record]]
record_sequence = "UCCUGGUACAGCUUGCAUAGUAUUUUCUAA"
test_result = 0.0489


Return reported pre-steady-state target cleavage rate; argument: "UCCUGGAUGUCGAUGCAUAGUAUUCUAGUUA"
0.115

Return reported pre-steady-state target cleavage rate; argument: "UCCUGGAUGAGCUUGCAUAGUAAUUACUUA"
0.00616

----------
Collected pre-steady-state target cleavage rate values appear next to each entry.
Tested on: MILI (PIWIL2) piRISC loaded with L1MC piRNA (26 nt);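 further: 1 nM active piRISC with 0.1 nM target library at 33 °C single turnover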
EXPERIMENTAL_DETAILS: pre-steady-state target cleavage rate (min^-1); guide: L1MC piRNA 5'p-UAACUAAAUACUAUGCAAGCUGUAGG; MIWI and MILI are mouse PIWI proteins and EfPiwi is from a freshwater sponge; tags in brackets are library labels; higher = faster piRNA-guided slicing of the target
EXPERIMENTAL_CONDITIONS: auxiliary factor: 500 nM mouse GTSF1
# respond with the number and nothing more

Example entries begin here.
[[record]]
record_sequence = "UCCUGGAUGUCGUUGCUUAGUAUAUAGUUA"
test_result = 0.0611

[[record]]
record_sequence = "UCCUGGAACAGGUUGCAAAGUAUUUAGUUA"
test_result = 0.144

[[record]]
record_sequence = "UCCUGGAUGUCGAUGCAUAGUAUUUAGGUA"
test_result = 0.0275


Return reported pre-steady-state target cleavage rate; argument: "UCCUGGAUGUCGAAGCAUAGUAUAUAGUUA"
0.0508

Return reported pre-steady-state target cleavage rate; argument: "UCCUGGAUCAGCUUGCAUAGUAUUUCGUUA"
0.147

Return reported pre-steady-state target cleavage rate; argument: "UCCUGGAUGAGCUUGCUUAGUAUUUAGUUA"
0.17

Return reported pre-steady-state target cleavage rate; argument: "UCCUGGAUCAGCCUGCAUAGUAUUUAGUUA"
0.244

Return reported pre-steady-state target cleavage rate; argument: "UCCUGGAUGUCGUUGCAUAGUAUUUACGUUA"
0.231

Return reported pre-steady-state target cleavage rate; argument: "UCCUGCUACAGCUUGCAUAGUUUUAAGUUA"
0.0676

Return reported pre-steady-state target cleavage rate; argument: "UCCUGGCACAGCUUGCAUAGUAUUUAGUUA"
0.289

Return reported pre-steady-state target cleavage rate; argument: "UCCUGGAUGAGCUUGCAAAGUAUUUACUUA"
0.046

Return reported pre-steady-state target cleavage rate; argument: "UCCUGGAUCACCUUGCAUAGUAUUUACAAA"
0.131

Return reported pre-steady-state target cleavage rate; argument: "UCCUGGAUGAGCUUGCAUAGUAUUUAGGUA"
0.166

Return reported pre-steady-state target cleavage rate; argument: "UCCUGGAUGUCCUUGCAUAGUGUUUAGUUA"
0.0572

Return reported pre-steady-state target cleavage rate; argument: "UCCUCCUACAGCUUGCAUAGUUAAUUCAAA"
0.0506

Return reported pre-steady-state target cleavage rate; argument: "UCCUGGAUGUCCUUACAUAGUAUUUAGUUA"
0.0839

Return reported pre-steady-state target cleavage rate; argument: "UCCUGGAACAGCUUGGAUAGUAUUAAGUUA"
0.186

Return reported pre-steady-state target cleavage rate; argument: "UCCUGGAUCAGCUUGCAUAGUUUUUUCAAA"
0.00833

Return reported pre-steady-state target cleavage rate; argument: "UCCUGGAUGAGCUUGCAUAGUAUAUAGAAA"
0.00651

Return reported pre-steady-state target cleavage rate; argument: "UCCUGCUACAGCUUGCUAUGUAUUUAGUAA"
0.0455

Return reported pre-steady-state target cleavage rate; argument: "UCCUGGAUGUCGAAGCAUAGUAUUUAGUGUA"
0.035
